Data origin, for the record: ChEMBL document CHEMBL4251704

Exercise: for every item that follows, state its recorded pIC50.
- Experimental target: Serine/threonine-protein kinase mTOR (Homo sapiens)
- Assay details: Inhibition of mTOR (unknown origin) using ULight-4E-BP1(Thr37/46) peptide as substrate measured after 2 hrs by HTRF assay
Numbers only, as −log10 of the molar value.

[[record]]
molecular_string = "COc1ncc(-c2ccc3ncc(Cl)c(=O)n3c2)cc1NS(=O)(=O)c1ccc(F)cc1F"
quantity_name = "pIC50"
recorded_measurement = 8.33


For the next question, use this compound.
Specify reported pIC50 for the compound shown: COc1ncc(-c2ccc3nccc(=O)n3c2)cc1NS(=O)(=O)c1ccc(F)cc1F 7.72

====

- Experimental target: Phosphatidylinositol 4,5-bisphosphate 3-kinase catalytic subunit alpha isoform (Homo sapiens)
- Sequence (P42336 whole entry, canonical isoform): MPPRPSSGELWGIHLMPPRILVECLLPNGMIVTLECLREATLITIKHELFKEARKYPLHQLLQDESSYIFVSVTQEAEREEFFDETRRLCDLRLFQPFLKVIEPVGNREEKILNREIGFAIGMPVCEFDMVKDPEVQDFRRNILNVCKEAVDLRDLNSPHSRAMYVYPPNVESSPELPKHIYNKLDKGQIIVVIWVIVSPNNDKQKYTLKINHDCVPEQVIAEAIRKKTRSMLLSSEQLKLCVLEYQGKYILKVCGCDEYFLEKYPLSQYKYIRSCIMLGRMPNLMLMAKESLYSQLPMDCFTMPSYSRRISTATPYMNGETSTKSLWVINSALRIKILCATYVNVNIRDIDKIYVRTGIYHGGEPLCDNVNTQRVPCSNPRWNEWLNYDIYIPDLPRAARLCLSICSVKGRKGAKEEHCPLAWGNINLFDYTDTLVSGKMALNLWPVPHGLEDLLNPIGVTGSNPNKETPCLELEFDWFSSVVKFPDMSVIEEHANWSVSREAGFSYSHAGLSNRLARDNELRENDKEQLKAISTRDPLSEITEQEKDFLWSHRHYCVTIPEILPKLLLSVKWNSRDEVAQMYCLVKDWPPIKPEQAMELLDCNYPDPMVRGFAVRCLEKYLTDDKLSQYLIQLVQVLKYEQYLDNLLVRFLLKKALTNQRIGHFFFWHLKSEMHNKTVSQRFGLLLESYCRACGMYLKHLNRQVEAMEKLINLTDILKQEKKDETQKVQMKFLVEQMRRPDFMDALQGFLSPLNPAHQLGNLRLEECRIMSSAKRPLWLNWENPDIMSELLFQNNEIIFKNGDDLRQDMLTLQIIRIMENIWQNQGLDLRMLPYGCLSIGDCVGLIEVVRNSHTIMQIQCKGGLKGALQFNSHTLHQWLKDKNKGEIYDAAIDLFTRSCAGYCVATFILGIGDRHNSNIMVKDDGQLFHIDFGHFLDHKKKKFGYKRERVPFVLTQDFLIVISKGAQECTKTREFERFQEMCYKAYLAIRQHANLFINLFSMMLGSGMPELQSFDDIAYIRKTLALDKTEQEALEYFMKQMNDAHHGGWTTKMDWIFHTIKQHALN
- Assay details: Inhibition of PI3Kalpha in human MCF7 cells assessed as reduction in AKT phosphorylation after 4 hrs by ADP-Glo assay
- Type: cell-based
Quantity name: IC50 (µM)
Give bare numbers, in µM.

Example results:
[[record]]
molecular_string = "COc1ncc(-c2ccc3nccc(=O)n3c2)cc1NS(=O)(=O)c1ccccc1C"
recorded_measurement = 0.0239

[[record]]
molecular_string = "O=c1ccnc2ccc(-c3cnc(Cl)c(NS(=O)(=O)c4ccccc4F)c3)cn12"
recorded_measurement = 0.0344


Please look at the items below and tell me IC50 for each one, in order.
1. COc1ncc(-c2ccc3nccc(=O)n3c2)cc1NS(=O)(=O)c1cccc(F)c1
2. COc1ncc(-c2ccc3ncc(C)c(=O)n3c2)cc1NS(=O)(=O)c1ccc(F)cc1F
3. COc1ncc(-c2ccc3nccc(=O)n3c2)cc1NS(=O)(=O)c1ccccc1F
4. COc1ncc(-c2ccc3nccc(=O)n3c2)cc1NS(=O)(=O)c1ccc(C#N)cc1

0.067
0.0279
0.141
0.0574

====

- Experimental target: Phosphatidylinositol 4,5-bisphosphate 3-kinase catalytic subunit alpha isoform (Homo sapiens)
- Assay details: Inhibition of PI3Kalpha in human MCF7 cells assessed as reduction in AKT phosphorylation after 4 hrs by ADP-Glo assay
- Type: cell-based
Exercise: for every item that follows, state its recorded IC50.
One number for each entry, in nM.

Example results:
[[record]]
molecular_string = "COc1ncc(-c2ccc3nccc(=O)n3c2)cc1NS(=O)(=O)c1ccc(Cl)cc1"
unit_text = "nM"
recorded_measurement = 48.8

[[record]]
molecular_string = "COc1ncc(-c2ccc3nccc(=O)n3c2)cc1NS(=O)(=O)c1cc(F)cc(F)c1"
unit_text = "nM"
recorded_measurement = 78.2

[[record]]
molecular_string = "COc1ncc(-c2ccc3nccc(=O)n3c2)cc1NS(=O)(=O)c1ccc(C(F)(F)F)cc1"
unit_text = "nM"
recorded_measurement = 48.7


Please look at the items below and tell me IC50 for each one, in order.
1. O=c1ccnc2ccc(-c3cnc(Cl)c(NS(=O)(=O)c4ccc(F)cc4F)c3)cn12
2. COc1ncc(-c2ccc3nccc(=O)n3c2)cc1NS(=O)(=O)c1ccc(F)cc1F

32.8
16

====

- Assay details: Half life in mouse at 1 mg/kg, iv
- Assay type: ADME, organism-based
- Test settings: in vivo
Quantity name: half-life (h)
Numbers only, in h.

[[record]]
molecular_string = "COc1ncc(-c2ccc3ncc(Cl)c(=O)n3c2)cc1NS(=O)(=O)c1ccc(F)cc1F"
quantity_name = "half-life"
unit_text = "h"
recorded_measurement = 3


For the next question, use this compound.
Specify reported half-life for the compound shown: COc1ncc(-c2ccc3nccc(=O)n3c2)cc1NS(=O)(=O)c1ccc(F)cc1F 1
